Provide the reported Mean % WT Binding of each item.
target: human CD33 variant V56R (human, UniProt P20138 18-364); experiment: flow cytometry, IgG on cells expressing the mutant
Sequence (P20138 18-364 V56R limits assumed): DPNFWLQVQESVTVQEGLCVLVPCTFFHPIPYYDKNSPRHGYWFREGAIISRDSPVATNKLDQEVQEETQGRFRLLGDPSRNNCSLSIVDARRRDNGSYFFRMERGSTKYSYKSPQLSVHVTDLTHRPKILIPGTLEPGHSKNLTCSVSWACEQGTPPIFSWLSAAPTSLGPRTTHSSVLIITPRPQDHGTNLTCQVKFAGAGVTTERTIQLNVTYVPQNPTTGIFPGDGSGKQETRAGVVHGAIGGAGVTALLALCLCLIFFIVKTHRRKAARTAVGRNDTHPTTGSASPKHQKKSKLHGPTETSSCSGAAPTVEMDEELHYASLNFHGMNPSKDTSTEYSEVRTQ

Example entries and their recorded answers appear below.
binder: Refmab #2 (antibody, human IgG1, V domains shown, Tested in IgG format; human IgG1 Fc silent (PG-LALA)) VH: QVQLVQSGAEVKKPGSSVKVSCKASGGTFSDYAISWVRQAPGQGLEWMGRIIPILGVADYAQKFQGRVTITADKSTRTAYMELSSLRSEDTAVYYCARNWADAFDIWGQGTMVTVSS VL: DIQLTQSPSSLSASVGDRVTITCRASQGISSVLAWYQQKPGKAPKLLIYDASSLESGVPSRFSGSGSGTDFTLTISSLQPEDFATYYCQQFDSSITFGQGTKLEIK
Mean % WT Binding: 107 % of WT
//
binder: Refmab #4 (antibody, human IgG1, V domains shown, Tested in IgG format; human IgG1 Fc silent (PG-LALA)) VH: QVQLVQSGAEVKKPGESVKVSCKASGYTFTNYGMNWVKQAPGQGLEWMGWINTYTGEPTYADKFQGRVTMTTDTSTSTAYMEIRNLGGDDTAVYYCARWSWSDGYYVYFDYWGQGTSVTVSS VL: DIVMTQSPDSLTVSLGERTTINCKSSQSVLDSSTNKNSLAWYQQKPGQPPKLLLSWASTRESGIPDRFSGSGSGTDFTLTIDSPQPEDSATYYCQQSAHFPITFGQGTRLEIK
Mean % WT Binding: 99.4 % of WT
//
binder: Refmab #1 (antibody, human IgG1, V domains shown, Tested in IgG format; human IgG1 (Absolute Antibody hP67.6, Cat. No. Ab00283-10.0); also called hP67.6) VH: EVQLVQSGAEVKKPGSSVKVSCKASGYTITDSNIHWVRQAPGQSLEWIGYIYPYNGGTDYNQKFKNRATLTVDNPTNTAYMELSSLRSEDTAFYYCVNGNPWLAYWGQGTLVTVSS VL: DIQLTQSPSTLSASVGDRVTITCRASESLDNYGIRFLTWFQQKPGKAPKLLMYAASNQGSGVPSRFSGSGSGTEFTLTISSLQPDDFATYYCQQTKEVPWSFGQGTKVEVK
Mean % WT Binding: 98.5 % of WT

Record summary for Refmab #3 (antibody, human IgG1, V domains shown, Tested in IgG format; human IgG1 Fc silent (PG-LALA)) VH: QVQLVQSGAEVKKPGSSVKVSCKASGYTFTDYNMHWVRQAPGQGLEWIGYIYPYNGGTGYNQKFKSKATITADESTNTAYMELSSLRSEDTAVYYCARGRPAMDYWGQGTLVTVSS VL: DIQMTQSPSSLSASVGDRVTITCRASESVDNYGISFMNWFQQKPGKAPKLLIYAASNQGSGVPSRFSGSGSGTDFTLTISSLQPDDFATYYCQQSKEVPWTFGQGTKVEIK : reported Mean % WT Binding = 97.7 % of WT

Where these numbers come from: patent US20260242735A1
